Where do these numbers come from? They come from patent US20230174523A1.

Quick reference for Emax among some molecules
system-under-test: TRAP1 enzyme (Homo sapiens)
protocol-details: Malachite green phosphate assay of TRAP1 ATPase activity
Format: biochemical
measurement-setup: read-out: Malachite Green Fluor DRC: Mean Emax

Guide cases for Emax, answers given:
Q: Emax lookup needed for CCc1ccc(NC(=O)c2cnc(-c3ccccc3)[nH]2)cc1S(=O)(=O)Nc1ccc(Br)cc1 , thanks.
Ans: 160 to 199%

Q: Then COc1ccc(NC(=O)c2cnc(-c3ccccc3)[nH]2)cc1S(=O)(=O)Nc1ccccc1C ?
Ans: 160 to 199%

Q: Can you handle COc1ccc(NC(=O)c2cnc(-c3ccccc3)[nH]2)cc1S(=O)(=O)N(CCOCCOCCOCCN)c1ccc(Br)cc1 next?
Ans: > 300%

Next:
Q: # get_value(readout='Emax', item= COc1ccc(NC(=O)c2cnc(-c3ccccc3)[nH]2)cc1S(=O)(=O)Nc1ccc(F)cc1 )
Ans: 200 to 300%

Q: Subsequent entry: O=C(Nc1ccc(F)c(S(=O)(=O)Nc2ccc(Cl)cc2)c1)c1cc(Cl)ncc1C(F)(F)F
Ans: 200 to 300%

Q: Could you do the same for COc1ccc(NC(=O)c2nc(Br)ccc2C)cc1S(=O)(=O)Nc1ccc(Cl)cc1 , please?
Ans: 200 to 300%

Q: Cool, now COc1ccc(NC(=S)c2ncc(-c3ccccc3)o2)cc1S(=O)(=O)Nc1ccc(Cl)cc1
Ans: 160 to 199%

Q: Can you handle O=C(Nc1cccc(S(=O)(=O)N2CCOc3cc(F)ccc32)c1)c1ncco1 next?
Ans: 160 to 199%

Q: What do we get for COc1ccc(NC(=O)c2cnc(C(F)(F)F)[nH]2)cc1S(=O)(=O)Nc1ccc(C)cc1 ?
Ans: 123 to 159%

Q: And for CCc1ccc(NC(=O)c2ncco2)cc1S(=O)(=O)Nc1ccc(C(F)(F)F)cc1 ?
Ans: 200 to 300%

Q: Moving on to the next molecule: COc1ccc(NC(=O)c2cnc(-c3ccccc3)[nH]2)cc1S(=O)(=O)N(C)c1ccc(Br)cc1
Ans: 160 to 199%

Q: What about this molecule? CN(c1ccc(Br)cc1)S(=O)(=O)c1cc(NC(=O)c2cnc[nH]2)ccc1OCCCCCC[P+](c1ccccc1)(c1ccccc1)c1ccccc1
Ans: > 300%

====

system-under-test: TRAP1 enzyme (Homo sapiens, UniProt Q12931)
Sequence (Q12931 60-704): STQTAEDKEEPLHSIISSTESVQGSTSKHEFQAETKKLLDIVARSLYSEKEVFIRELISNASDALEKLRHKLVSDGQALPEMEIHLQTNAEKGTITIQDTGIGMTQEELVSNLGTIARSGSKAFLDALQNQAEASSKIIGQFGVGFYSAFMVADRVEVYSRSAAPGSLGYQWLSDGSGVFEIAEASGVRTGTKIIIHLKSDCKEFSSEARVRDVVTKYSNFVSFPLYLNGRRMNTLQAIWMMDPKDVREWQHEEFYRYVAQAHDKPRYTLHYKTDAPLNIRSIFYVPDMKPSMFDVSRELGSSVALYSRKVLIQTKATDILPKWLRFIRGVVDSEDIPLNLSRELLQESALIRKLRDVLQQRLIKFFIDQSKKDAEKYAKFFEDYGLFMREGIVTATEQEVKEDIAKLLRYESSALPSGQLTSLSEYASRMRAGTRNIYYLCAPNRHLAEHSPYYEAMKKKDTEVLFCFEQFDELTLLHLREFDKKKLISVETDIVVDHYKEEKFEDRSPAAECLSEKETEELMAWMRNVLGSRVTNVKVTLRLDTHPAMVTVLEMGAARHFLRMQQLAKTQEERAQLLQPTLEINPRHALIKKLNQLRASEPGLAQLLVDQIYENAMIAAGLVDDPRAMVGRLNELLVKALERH
protocol-details: Malachite green phosphate assay of TRAP1 ATPase activity
Type: biochemical
measurement-setup: TRAP1 ATPase activation, 150 nM Trap1, 20 μM ATP, geometric mean; read-out: Malachite Green Fluor DRC: GeoMean EC50
pEC50: −log10 of the molar value.
Entries and their pEC50

Q: Requested read-out: pEC50. Entry: C=C(C)c1nc(C(=O)Nc2ccc(OC)c(S(=O)(=O)Nc3ccc(Cl)cc3)c2)oc1-c1ccccc1
Ans: > 5.00

Q: // query: O=C(Nc1cccc(S(=O)(=O)Nc2ccc(Br)cc2)c1)c1ncco1
Ans: 4.00 to 4.70

Q: And the next one, Cc1ncoc1C(=O)Nc1cccc(S(=O)(=O)N2CCOc3cc(Cl)ccc32)c1 ?
Ans: 4.70 to 5.00

Q: Same read-out for COc1ccc(NC(=O)c2cnc(C(F)(F)F)[nH]2)cc1S(=O)(=O)Nc1ccccc1 ?
Ans: 4.70 to 5.00

Q: Queued: COc1ccc(NC(=O)c2cnccc2C(C)C)cc1S(=O)(=O)Nc1ccc(Cl)cc1
Ans: 4.00 to 4.70

Next:
Q: # input compound: COc1ccc(NC(=O)c2ncc(C(F)(F)F)[nH]2)cc1S(=O)(=O)Nc1ccc(Br)cc1 ; wanted: its pEC50
Ans: 4.00 to 4.70

Q: Same question for O=C(Nc1ccc(CCO)c(S(=O)(=O)Nc2ccc(Br)cc2)c1)c1ncco1 please.
Ans: 4.00 to 4.70

Q: Field entry: COc1ccc(NC(=O)c2cnc(C(F)(F)F)[nH]2)cc1S(=O)(=O)N(CCCCCCO)c1ccc(Br)cc1
Ans: 4.00 to 4.70

====

Collected Emax values appear next to each entry.
system-under-test: TRAP1 enzyme (Homo sapiens, UniProt Q12931)
protocol-details: Malachite green phosphate assay of TRAP1 ATPase activity
Type: biochemical
measurement-setup: read-out: Malachite Green Fluor DRC: Mean Emax

// worked examples, Emax included
Q: Which value of Emax has been reported for COc1ccc(NC(=O)c2cnc(C(F)(F)F)[nH]2)cc1S(=O)(=O)N(CCCCN1CCOCC1)c1ccc(Br)cc1 [Compound 430] in the records?
Ans: 200 to 300%

Q: Quick one: O=C(Nc1ccc(F)c(S(=O)(=O)Nc2c(F)cc(Cl)cc2F)c1)c1ncc(-c2ccccc2)o1 [Compound 503]
Ans: 123 to 159%

Q: Ok, now O=C(Nc1ccc(F)c(S(=O)(=O)Nc2ccc(F)cc2)c1)c1cnc(C(F)(F)F)[nH]1 [Compound 220]
Ans: 160 to 199%

Q: What would you report for COc1ccc(NC(=O)c2ccccc2N2CCOCC2)cc1S(=O)(=O)Nc1c(C)cccc1C [Compound 1048] ?
Ans: 160 to 199%

Q: What about this molecule? O=C(Nc1ccc(F)c(S(=O)(=O)Nc2ccc(Br)cc2)c1)c1cnc(C(F)(F)F)[nH]1 [Compound 186]
Ans: 200 to 300%

Q: Entry CCOC(=O)Cc1ccc(NC(=O)c2ncc(-c3ccccc3)o2)cc1S(=O)(=O)Nc1ccc(Cl)cc1 [Compound 558] please
Ans: 160 to 199%

Q: And what about the molecule COc1ccc(NC(=O)c2nccs2)cc1S(=O)(=O)Nc1ccc(Br)cc1 [Compound 304] ?
Ans: 200 to 300%

// moving on: another record for Emax
Q: Tell me the measured Emax of COc1ccc(NC(=O)c2ocnc2C)cc1S(=O)(=O)Nc1ccc(Br)cc1 [Compound 299] , please.
Ans: 160 to 199%

====

# pEC50 values compiled below
system-under-test: TRAP1 enzyme (Homo sapiens, UniProt Q12931)
protocol-details: ADP Glo assay of TRAP1 ATPase activity
Assay type: biochemical
measurement-setup: TRAP1 ATPase activation, 150 nM Trap1, 20 μM ATP, geometric mean; read-out: ADP GLO DRC: GeoMean EC50
pEC50: −log10 of the molar value.

# count of solved cases: 8
Q: // pEC50 lookup, key: CCOc1cc(OCC)cc(C(=O)Nc2ccc(OC)c(S(=O)(=O)Nc3c(C)cccc3C)c2)c1 [Compound 1117]
Ans: > 5.00

Q: Thanks! And Cc1onc(-c2ccccc2Cl)c1C(=O)Nc1ccc(F)c(S(=O)(=O)Nc2ccc(Cl)cc2)c1 [Compound 728] ?
Ans: 4.70 to 5.00

Q: Could you do the same for COc1ccc(NC(=O)c2cccnc2-c2ccccc2C)cc1S(=O)(=O)Nc1c(C)cccc1C [Compound 1053] , please?
Ans: 4.00 to 4.70

Q: Now try C=C(C)c1cc(OC)c(S(=O)(=O)Nc2ccc(C(F)(F)F)cc2)cc1NC(=O)c1ncc(-c2ccccc2)o1 [Compound 1189] .
Ans: 4.00 to 4.70

Q: Record: COc1ccc(NC(=O)c2cn(C)c3ncccc23)cc1S(=O)(=O)Nc1ccc(Cl)cc1 [Compound 1345]
Ans: > 5.00

Q: Do the same for Cc1nccc(C(F)(F)F)c1C(=O)Nc1ccc(F)c(S(=O)(=O)Nc2ccc(Cl)cc2)c1 [Compound 734] please
Ans: 4.70 to 5.00

Q: How about this molecule: COc1ccc(NC(=O)c2cccc(-c3cncnc3)c2)cc1S(=O)(=O)Nc1c(C)cccc1C [Compound 1248]
Ans: 4.00 to 4.70

Q: // query: COc1ccc(NC(=O)c2cccc(C#N)c2Cl)cc1S(=O)(=O)Nc1c(C)cccc1C [Compound 1100]
Ans: 4.70 to 5.00

Continuing:
Q: Suppose we examine the molecule COc1ccc(NC(=O)c2ccncc2-c2ccccc2)cc1S(=O)(=O)Nc1c(C)cccc1C [Compound 1267] ; what pEC50 value has been reported?
Ans: 4.00 to 4.70

Q: Quick one: COc1ccc(NC(=O)c2c(C)cc(Cl)nc2Cl)cc1S(=O)(=O)Nc1c(C)cccc1C [Compound 1037]
Ans: 4.00 to 4.70

Q: Now give it for COc1ccc(NC(=O)c2c[nH]c3cnccc23)cc1S(=O)(=O)Nc1c(C)cccc1C [Compound 1288] too.
Ans: 4.00 to 4.70

Q: Then COc1ccc(NC(=O)c2cc(C(C)C)on2)cc1S(=O)(=O)Nc1c(C)cccc1C [Compound 1032] ?
Ans: > 5.00

Q: What do you get for CCc1cc(C(=O)Nc2ccc(F)c(S(=O)(=O)Nc3ccc(Cl)cc3)c2)cc(C)n1 [Compound 1286] ?
Ans: 4.00 to 4.70

Q: Then this molecule: CCc1nccc(C)c1NS(=O)(=O)c1cc(NC(=O)c2ncc(-c3ccccc3)o2)ccc1OC [Compound 1697]
Ans: 4.00 to 4.70

Q: Again, but for O=C(Nc1ccc(F)c(S(=O)(=O)Nc2ccc(Cl)cc2)c1)c1cccc2c1OC(F)(F)O2 [Compound 737]
Ans: 4.70 to 5.00

Q: Next entry: O=C(Nc1ccc(F)c(S(=O)(=O)Nc2ccc(Cl)cc2)c1)c1csc(N2CCOCC2)n1 [Compound 745]
Ans: 4.00 to 4.70
